# System under test: T1, hCD47-ECD/Fc protein (Sinobiological) (human, UniProt Q08722 19-139, biotinylated in the Octet assay, sites not stated)
# T1 construct: extracellular domain; Bought protein; also called human CD47-Fc antigen; recombinant hCD47-ECD/Fc; not shown: Fc part of the bought fusion protein
# T1 sequence (Q08722 19-139 limits assumed): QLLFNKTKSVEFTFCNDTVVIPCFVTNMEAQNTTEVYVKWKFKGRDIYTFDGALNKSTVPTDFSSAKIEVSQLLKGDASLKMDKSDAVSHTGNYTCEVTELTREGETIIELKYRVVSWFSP
# Test details: BLI (Octet RED96), biotin-hCD47-ECD/Fc on SA sensors, 1:1 model;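 further: test antibodies as analytes, 300 s association then 300 s dissociation in running buffer, with benchmark reference antibodies run as controls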
Measure: koff

INSERT INTO assay_data (binder, measurement) VALUES
  ('TY25030 (antibody, V domains shown) VH: EVQLVESGGGLVQPGGSLRLSCAASGYSITSGYYWSWIRQAPGKGLEWIGEIYHSGNTYYNPSLKSRVTISRDNSKNTLYLQLNSLRAEDTAVYYCARRVPLGAFDYWGQGTLVTVSS VL: DIQLTQSPSSLSASVGDRVTITCRASQTVISRYLAWYQQKPGKAPKLLIYDASNLETGVPSRFSGSGSGTDFTLTISSLQPEDFATYYCQQYYAWPLTFGQGTKVEIKR', '0.00166 s⁻¹');
